test: Half life in KCl/HCl buffer by 31P-NMR analysis at pH 1.4; format: physicochemical
Parameter half-life: see the listing below.
Please give a number only; it is taken to be in h.

molecule	measured.metric	value.observed
B[P@@](=O)(OC[C@H]1O[C@@H](n2ccc(=O)[nH]c2=O)[C@H](O)[C@@H]1O)OP(=O)(O)O	half-life	16.8
BP(=O)(OC[C@H]1O[C@@H](n2cc(OC)c(=O)[nH]c2=O)[C@H](O)[C@@H]1O)OP(=O)(O)O (stereo partly drawn)	half-life	16.9

We next turn to a different molecule, shown below.
What value of half-life has been reported for the following molecule? O=c1ccn([C@@H]2O[C@H](COP(=O)(O)OP(=O)(O)O)[C@@H](O)[C@H]2O)c(=O)[nH]1 [URIDINE_DIPHOSPHATE] 288

----------
biological target: NPP1 (ectonucleotide pyrophosphatase/phosphodiesterase family member 1) (Homo sapiens); assay: Hydrolytic stability of the compound assessed as human NPP1-mediated hydrolysis after 2 hrs by HPLC analysis; format: ADME; conditions: human NPP1 enzyme, read-out: Activity
Sequence (P22413 whole entry): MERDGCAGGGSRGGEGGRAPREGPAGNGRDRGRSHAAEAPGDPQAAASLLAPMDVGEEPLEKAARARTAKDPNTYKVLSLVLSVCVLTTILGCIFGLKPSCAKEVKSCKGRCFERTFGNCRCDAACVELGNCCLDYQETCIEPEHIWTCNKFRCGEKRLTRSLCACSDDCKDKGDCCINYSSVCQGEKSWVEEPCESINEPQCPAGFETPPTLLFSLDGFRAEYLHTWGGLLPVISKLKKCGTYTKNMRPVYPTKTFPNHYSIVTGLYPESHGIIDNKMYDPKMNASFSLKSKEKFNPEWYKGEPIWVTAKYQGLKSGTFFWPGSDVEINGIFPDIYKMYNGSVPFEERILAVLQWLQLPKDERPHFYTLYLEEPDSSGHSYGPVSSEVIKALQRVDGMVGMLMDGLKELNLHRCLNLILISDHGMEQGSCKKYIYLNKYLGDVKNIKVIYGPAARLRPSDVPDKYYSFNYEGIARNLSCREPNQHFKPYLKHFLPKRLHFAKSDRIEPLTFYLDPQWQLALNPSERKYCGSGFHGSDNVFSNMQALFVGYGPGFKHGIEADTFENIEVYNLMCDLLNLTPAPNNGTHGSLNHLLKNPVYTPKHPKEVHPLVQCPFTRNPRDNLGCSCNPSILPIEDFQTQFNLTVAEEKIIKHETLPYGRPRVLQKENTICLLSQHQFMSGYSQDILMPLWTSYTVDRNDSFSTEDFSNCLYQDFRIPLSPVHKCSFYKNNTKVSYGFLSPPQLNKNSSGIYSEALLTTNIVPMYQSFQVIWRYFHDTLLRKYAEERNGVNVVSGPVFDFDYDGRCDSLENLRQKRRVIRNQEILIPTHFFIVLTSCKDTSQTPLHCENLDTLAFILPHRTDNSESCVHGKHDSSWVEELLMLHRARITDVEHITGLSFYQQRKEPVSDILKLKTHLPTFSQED
measured.metric: metabolised at 2 h (%)
Please give a number only; it is taken to be in %.

What value of metabolised at 2 h has been reported for the following compound? B[P@@](=O)(OC[C@H]1O[C@@H](n2cc(OC)c(=O)[nH]c2=O)[C@H](O)[C@@H]1O)OP(=O)(O)O 15

----------
Parameter pEC50: see the listing below.
molecular target: P2Y purinoceptor 6 (Homo sapiens, UniProt Q15077); assay: Agonist activity at human GFP-tagged P2Y6 receptor expressed in human 1321N1 cells assessed as intracellular calcium mobilization by fura2/AM-based fluorescence spectrophotometry; format: functional, cell-based
Sequence (Q15077 whole entry): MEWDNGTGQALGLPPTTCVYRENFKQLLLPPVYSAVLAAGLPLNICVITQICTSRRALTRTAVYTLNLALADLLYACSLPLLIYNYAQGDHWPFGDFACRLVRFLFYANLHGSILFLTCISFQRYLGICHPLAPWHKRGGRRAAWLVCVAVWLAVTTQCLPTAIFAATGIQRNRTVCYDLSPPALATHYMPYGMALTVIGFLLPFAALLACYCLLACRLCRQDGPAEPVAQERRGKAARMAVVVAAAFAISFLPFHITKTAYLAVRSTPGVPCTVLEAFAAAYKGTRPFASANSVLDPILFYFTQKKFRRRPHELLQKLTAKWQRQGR
Quick note: pEC50 means taking -log10 of the concentration in moles per liter.

// below: answered molecules
molecule	pEC50
B[P@](=O)(OC[C@H]1O[C@@H](n2cc(OC)c(=O)[nH]c2=O)[C@H](O)[C@@H]1O)OP(=O)(O)OP(=O)(O)OC[C@H]1O[C@@H](n2cc(OC)c(=O)[nH]c2=O)[C@H](O)[C@@H]1O	5.66
B[P@](=O)(OC[C@H]1O[C@@H](n2cc(OC)c(=O)[nH]c2=O)[C@H](O)[C@@H]1O)O[P@@](=O)(O)OP(=O)(O)O	4.70

Hi! What's the reported pEC50 for B[P@](=O)(OC[C@H]1O[C@@H](n2cc(OC)c(=O)[nH]c2=O)[C@H](O)[C@@H]1O)OP(=O)(O)O on P2Y purinoceptor 6 (Homo sapiens, UniProt Q15077)? 5.37

Now consider B[P@@](=O)(OC[C@H]1O[C@@H](n2cc(OC)c(=O)[nH]c2=O)[C@H](O)[C@@H]1O)OP(=O)(O)OP(=O)(O)O . 4.95

Now consider BP(=O)(OP(=O)(O)OC[C@H]1O[C@@H](n2cc(OC)c(=O)[nH]c2=O)[C@H](O)[C@@H]1O)OP(=O)(O)OC[C@H]1O[C@@H](n2cc(OC)c(=O)[nH]c2=O)[C@H](O)[C@@H]1O . 6.70

Now consider B[P@@](=O)(OC[C@H]1O[C@@H](n2cc(OC)c(=O)[nH]c2=O)[C@H](O)[C@@H]1O)OP(=O)(O)OP(=O)(O)OC[C@H]1O[C@@H](n2cc(OC)c(=O)[nH]c2=O)[C@H](O)[C@@H]1O . 7.22

Now consider B[P@@](=O)(OC[C@H]1O[C@@H](n2cc(OC)c(=O)[nH]c2=O)[C@H](O)[C@@H]1O)OP(=O)(O)O . 8.10

Now consider O=c1ccn([C@@H]2O[C@H](COP(=O)(O)OP(=O)(O)O)[C@@H](O)[C@H]2O)c(=O)[nH]1 [URIDINE_DIPHOSPHATE] . 6.82
